tested on: SK-MEL-5 melanoma; experiment: NCI tumour cell line growth inhibition, 48 h
Record met whenever TGI is at 6 µM or higher; record not met when lower.

Use the examples below as a reference point.
MOLECULE | STUDY SYSTEM | GROUP
NC1=NN(c2ccccc2)C(=O)C1/C(=N\NC(=O)c1cc2ccccc2cc1O)C(=O)Nc1ccc(Cl)c(Cl)c1 (stereo not drawn) | SK-MEL-5 melanoma | met
COC(=O)c1cc(NC(=O)Cn2c3ccccc3c3ccccc32)cn1C | SK-MEL-5 melanoma | met
CC(=O)Nc1ccc(S(=O)(=O)Nc2cnc3ccccc3n2)cc1 | SK-MEL-5 melanoma | met
CCN1CCC(O)(/C=C/c2ccc(Cl)c(Cl)c2)C(C(=O)/C=C/c2ccc(Cl)c(Cl)c2)C1 (stereo not drawn) | SK-MEL-5 melanoma | not met
C#CCN1C(=O)CN2C(Cl)(Cl)C2(c2ccccc2)c2cc(Cl)ccc21 (stereo not drawn) | SK-MEL-5 melanoma | met

Switching to the query record.
Hi, just wondering whether COc1cccc(/C=C/C(=O)c2cc3c(N)c(C(=O)Nc4ccccc4)sc3nc2C)c1 shows TGI of 6 µM or higher. not met

====

system: SK-MEL-28 melanoma; assay: NCI tumour cell line growth inhibition, 48 h
Measured TGI, listed per entry.

MOLECULE | ENDPOINT VALUE
OCC1OC(N2CCN(C3OC(CO)C(O)C(O)C3O)CC2)C(O)C(O)C1O (centres undefined) | > 100 µM

Name the recorded TGI of the molecule listed here: O=C(Nc1n[nH]c2cc(-c3ccc(F)cc3)ccc12)C1CC1 > 25 µM

# return recorded TGI for input c1ccc(C2SCc3nc4ccccc4n32)cc1 (centres undefined) > 100 µM

State, in one line, measured TGI of CCN(CC(O)COc1ccc2c(c1)[n+]([O-])nc(N)[n+]2[O-])C(C)=O (centres undefined) > 100 µM

Respond only with TGI recorded for O=S1(=O)OCCOS(=O)(=O)C1C1c2ccccc2-c2ccccc21 > 100 µM

====

tested on: MALME-3M melanoma; assay: NCI tumour cell line growth inhibition, 48 h
// TGI lookup, one value per entry

Here is how some molecules turned out for TGI.
MOLECULE | ENDPOINT VALUE
O=C(Nc1ccn(C2CCC(COC(c3ccccc3)(c3ccccc3)c3ccccc3)O2)c(=O)n1)c1ccccc1 (stereo not given) | 9.91 µM
COC(=O)[C@@]1(Cc2ccc(OC(C)=O)cc2)Cc2cc3ccccc3n2N1 | > 100 µM
Nc1nc2c(nnn2C2C=C(CO)C(O)C2O)c(=O)[nH]1 (stereo not given) | > 100 µM

Input COc1cc([C@@H]2c3cc4c(cc3[C@H](OC3OC5COC(C(C)C)OC5C(O)C3O)C3COC(=O)[C@@H]32)OCO4)cc(OC)c1OC (stereo not given in full) , output reported TGI. 30.5 µM

Find the measured TGI of COc1ccc(CNCCN2C(=O)c3ccc4c5c(ccc(c35)C2=O)C(=O)N(CCNCc2ccc(OC)c(OC)c2OC)C4=O)c(OC)c1OC and report it. 0.297 µM

Provide measured TGI value, entry: COc1ccc(/C=N/NC(=O)NCCNCCO)cc1 > 100 µM

Give a short answer stating reported TGI for N#Cc1ccccc1C#C/C=C\C#Cc1ccccn1 . 39.6 µM

Determine from records and report TGI for O=C1C(Nc2ccc(S(=O)(=O)Nc3cnc4ccccc4n3)cc2)=CC(=Nc2ccc(S(=O)(=O)Nc3cnc4ccccc4n3)cc2)c2ccccc21 33.8 µM

====

Some compounds, each annotated with its measured TGI.
test system: SK-MEL-2 melanoma; assay: NCI tumour cell line growth inhibition, 48 h

Solved entries:
COMPOUND | ENDPOINT VALUE
COc1ccc2nc3c(nc2c1)C(C)(C)C=C3c1ccc(Br)cc1 | > 100 µM
O=S1(=O)OCCOS(=O)(=O)C1C1c2ccccc2-c2ccccc21 | > 100 µM

Input COc1ccc(/C=N/NC(=O)NCCNCCO)cc1 , output reported TGI. > 100 µM

Answer with the recorded TGI for the compound listed here: CN1C(=O)c2c(c3c4ccccc4n(C)c3c3c2c2ccccc2n3C)C1=O > 100 µM

State its TGI for this compound: c1ccc2c(c1)CCCc1nnc3nc4ccccc4n3c1-2 > 100 µM

Annotate the compound C=C1CC2(CC(c3ccccc3C)OC(c3ccccc3C)C2)OC1=O (stereo not given) with its measured TGI. 4.13 µM

Given CC(=O)OC1CC[C@@]2(C)C(=CC[C@@H]3[C@@H]2CC[C@]2(C)Nc4c(cnn4-c4ccc(F)cc4)C[C@@H]32)C1 (stereo not given in full) , respond with its TGI. > 73.6 µM

Please supply the value of reported TGI for the item Nc1ccc(Oc2ccc(C34CC5CC(C3)CC(c3ccc(Oc6ccc(N)c(O)c6)cc3)(C5)C4)cc2)cc1O 5.1 µM

Retrieve TGI measured for CC(=O)Nc1ccc(S(=O)(=O)Nc2cnc3ccccc3n2)cc1 and print it. > 100 µM

Return the recorded TGI value; entry: O=C(NC12CC3CC(CC(C3)C1)C2)n1cnc2c(Cl)ncnc21 80.7 µM

====

Reported TGI values follow for various compounds
system: DMS 273 small cell lung; assay: NCI tumour cell line growth inhibition, 48 h

As a guide, the following entries are already answered.
COMPOUND | MEASUREMENT KIND | ENDPOINT VALUE
O=S(=O)(O)c1ccc([Se][Se]c2ccc(S(=O)(=O)O)cc2)cc1 | TGI | > 100 µM
CCCCCCCC(=O)[O-].N.N.N.N.N.[Co+3].[O-][Cl+3]([O-])([O-])[O-] | TGI | > 100 µM
O=C(NNC(=O)/C(=C/c1cccc([N+](=O)[O-])c1)NC(=O)c1ccccc1)Nc1ccc(Cl)cc1 | TGI | 26.1 µM
O=Cc1cc2sc(C=O)cc2s1 | TGI | > 100 µM
O=C1C2Cc3ccccc3CN2C(=O)N1CN1CCCCC1 (stereo unspecified) | TGI | > 100 µM
CCn1c(C)nc([N+](=O)[O-])c1Sc1ncc[nH]1 | TGI | > 100 µM
NC1=NN(c2ccccc2)C(=O)C1/C(=N\NC(=O)c1cc2ccccc2cc1O)C(=O)Nc1ccc(Cl)c(Cl)c1 (stereo unspecified) | TGI | 40.7 µM
O=C(Cn1cc(I)c(C(=O)NCC(O)CO)n1)NCC(O)CO (stereo unspecified) | TGI | > 100 µM

Entry Cc1c2cc[n+](C)cc2c(C)c2c1[nH]c1ccc(OC(C)(C)C)cc12 needs its TGI filled in; supply it. > 100 µM

Dear colleague, please send me the reported TGI for Nc1ccc2ncc(NCc3ccc(F)cc3)nc2c1 when you can. > 100 µM

Annotate the compound OCC1OC(NO)C(O)C(O)C1O (stereo unspecified) with its measured TGI. > 100 µM

====

tested on: LOX IMVI melanoma; assay: NCI tumour cell line growth inhibition, 48 h
MEASUREMENT KIND: TGI

MOLECULE | TGI
CCN(CC)CCNC(=O)C1COc2ccc(-c3cc(=O)c4ccccc4o3)cc2O1 (stereo not given) | 31.7 µM
O=C(NC12CC3CC(CC(C3)C1)C2)n1cnc2c(Cl)ncnc21 | 37.9 µM
O=C(COc1ccc(Cl)cc1Cl)NNc1ccc([N+](=O)[O-])cc1 | > 100 µM

Give a short answer stating reported TGI for Nc1ncnc2c1ncn2Cc1ccc(CCl)cc1 . 51.7 µM

Tell me measured TGI for CC(C)(C)c1cc([Si](C)(C)C)c(C#N)c([Si](C)(C)C)c1 please. > 100 µM

Give the reported value of TGI for this record: COc1cc2cc(C(=O)Nc3ccccc3)c(N)nc2cc1OC > 100 µM

Kindly indicate its recorded TGI. Item: O=C(O)Cn1cnc2c(=O)[nH]c(Nc3ccccc3)nc21 > 100 µM

Look up TGI of Oc1ccc(Cl)cc1N=Nc1c(O)ccc2ccccc12 and report it. > 100 µM

Quick one: give measured TGI for Nc1nc(Cl)cc(Oc2ccc(Cl)cc2)n1 > 100 µM

Please look at this molecule and report its TGI: CCOC(=O)/C(C(N)=O)=C(/O)c1cnccn1 > 100 µM

====

tested on: K-562 leukemia; assay: NCI tumour cell line growth inhibition, 48 h; in the data active = GI50 below about 0.43 µM; inactive = the rest
Permitted responses: 1 (active), 0 (inactive)

Completed entries (count: 6):
ITEM SMILES | GROUP
O=C(Nc1n[nH]c2cc(-c3ccc(F)cc3)ccc12)C1CC1 | 0
COc1cccc(/C=C/C(=O)c2cc3c(N)c(C(=O)Nc4ccccc4)sc3nc2C)c1 | 0
c1ccc(OCC[P+](c2ccccc2)(c2ccccc2)c2ccccc2)cc1 | 0
Cc1ccccc1N=C(c1ccccc1)C1C(=O)c2ccccc2C1=O | 0
[N-]=[N+]=NCCCn1c2c(c3ccccc3c1=O)C(=O)c1cc3c(cc1-2)OCO3 | 0
CS(=O)(=O)Nc1cc(-c2ccc3ncnc(Nc4ccc(OCc5ccccn5)c(Cl)c4)c3c2)cnc1Cl | 0

What is the recorded call for this compound in the test? Cn1cc(-c2nc(-c3c[nH]c4ccccc34)cs2)c2cccnc21 1

Identify the outcome logged in this assay for the compound shown: COc1cc(N2CCN(C(C)C)CC2)ccc1Nc1nc(Nc2ccc(F)cc2C(N)=O)c2cc[nH]c2n1 0

Field: outcome | Entry: c1ccc2cc(Cn3c(-c4cccc5ccccc45)[n+](Cc4ccc5ccccc5c4)c4c5ccccc5c5ccccc5c43)ccc2c1 1
